Values from patent US20200297760A1

Target: HLA-A*11:01 (recombinant MHC class I molecule) (human)
Assay: REVEAL MHC-peptide binding assay, recombinant HLA-A*11:01
Conditions: remark: other sources report otherwise
measurement_label: In Vitro Score (score, % of positive control peptide)
Give a plain numeric answer without units written out.

# input Dear colleague, I am looking for the recorded In Vitro Score (score, % of positive control peptide) of the following binder: `IIFWVSRGR`
# output 68.9

# input Ok, now `IFWVARGRK`
# output 34.9

# input Ok, now `IIFWVLRGR`
# output 35.2

# input Ok, now `FIIFWVHRG`
# output 0.9

# input Ok, now `IIFWVARGR`
# output 70.6

# input Ok, now `IFWVSRGRK`
# output 39.2

# input Ok, now `WVKRGSKKL`
# output 11.8

# input Ok, now `AFIIFWVAR`
# output 51.8

# input Ok, now `WVKRGHKKL`
# output 2.8

# input Ok, now `IFWVKRGAK`
# output 69.7

# input Ok, now `IFWVKRGLK`
# output 61.1

# input Ok, now `WVARGRKKL`
# output 13.8

# input Ok, now `WVQRGRKKL`
# output 12.8

# input Ok, now `IIFWVKRGA`
# output 22.6

# input Ok, now `IFWVHRGRK`
# output 36.6

# input Ok, now `VAFIIFWVS`
# output 25.1

# input Ok, now `IFWVKRGSK`
# output 47.9

# input Ok, now `WVKRGNKKL`
# output 4.1

# input Ok, now `IIFWVQRGA`
# output 56.5

# input Ok, now `IFWVQRGAK`
# output 61.3

# input Ok, now `IIFWVHRGR`
# output 77.5

# input Ok, now `IFWVQRGNK`
# output 67.5

# input Ok, now `WVKRGAKKL`
# output 4.6

# input Ok, now `IIFWVKRGN`
# output 42.1

# input Ok, now `AFIIFWVHR`
# output 34.9

# input Ok, now `IIFWVQRGR`
# output 72.8
